pIC50: −log10 of the molar value.
Heads up, these compounds all have pIC50 values measured for human MEK1 (Homo sapiens, UniProt Q02750).

Worked examples, 4 compounds total:
Compound | pIC50
O=C(NC1CC2CCC1C2)c1ccncc1Nc1ccc(I)cc1F (stereo not shown) | > 6.00
CCONC(=O)c1ccncc1Nc1ccc(Br)cc1C | > 6.00
CC(=O)NCCNC(=O)c1ccncc1Nc1ccc(I)cc1Cl | > 6.00
O=C(NC1CCC1)c1ccncc1Nc1ccc(I)cc1F | > 6.00

Field request: pIC50 | item: CCOC(CNC(=O)c1ccncc1Nc1ccc(I)cc1F)OCC > 6.00

Param item: O=C(NOC[C@H](O)CO)c1ccncc1Nc1ccc(I)cc1F > 6.00

Proceed to O=C(NCCCn1ccnc1)c1cc(Br)ncc1Nc1ccc(I)cc1F > 6.00

# repeat for O=c1[nH]nc(-c2ccncc2Nc2ccc(Br)cc2F)o1 5.00 to 6.00
